Molecular target: P. falciparum apicoplast DNA polymerase (Pf-apPOL) (Plasmodium falciparum, UniProt Q8ILY1)
Sequence (Q8ILY1 entry or part of it): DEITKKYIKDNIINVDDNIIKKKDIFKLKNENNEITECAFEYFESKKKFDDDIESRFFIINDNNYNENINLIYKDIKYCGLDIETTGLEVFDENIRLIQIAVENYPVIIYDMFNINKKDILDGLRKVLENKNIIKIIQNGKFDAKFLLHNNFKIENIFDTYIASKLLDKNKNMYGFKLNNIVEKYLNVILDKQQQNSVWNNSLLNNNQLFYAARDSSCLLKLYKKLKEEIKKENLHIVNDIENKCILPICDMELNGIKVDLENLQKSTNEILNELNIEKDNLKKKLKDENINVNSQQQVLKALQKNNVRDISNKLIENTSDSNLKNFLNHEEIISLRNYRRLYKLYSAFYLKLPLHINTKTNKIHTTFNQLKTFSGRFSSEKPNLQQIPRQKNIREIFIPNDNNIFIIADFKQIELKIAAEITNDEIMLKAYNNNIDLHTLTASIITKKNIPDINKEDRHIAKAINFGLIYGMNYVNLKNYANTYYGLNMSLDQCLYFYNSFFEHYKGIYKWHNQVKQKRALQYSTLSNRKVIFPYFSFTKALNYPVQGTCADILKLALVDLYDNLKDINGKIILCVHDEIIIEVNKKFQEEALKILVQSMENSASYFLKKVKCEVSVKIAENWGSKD
Experiment: Fluorescence-based high-throughput DNA polymerase assay (molecular beacon), primary screen and dose-response;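 for % inhibition apPOL 180': test concentration in µM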
Assay type: biochemical
Conditions: DRC-2, 180', concentration 40 (unit not given)
Source text: The HT assay employs a molecular beacon, a stem-loop DNA template with a Cy3 dye and the Black Hole Quencher on the 3′ and 5′ ends of the DNA, respectively. Pf-apPOL concentration is based on a calculated absorptivity of ε280 = 56750 M^−1 cm^−1. […] To identify apPOL inhibitors we utilised our previously developed high-throughput DNA polymerase assay. […] The assay accurately recapitulates the kinetic behaviour of apPOL, as measured through more conventional low-throughput gel-based assays. […]
recorded endpoint: % inhibition apPOL 180' (%)

> print(dat)
                                   compound  measured.value
1  NC(=O)c1cc[n+](CC2=C(C(=O)[O-])N3C(=O)[C@@H](NC(=O)[C@@H](c4ccccc4)S(=O)(=O)[O-])[C@H]3SC2)cc1.[Na+] [Molecule 9]              83
2  Cc1ccc(CCNC(=O)c2cnn3c(O)c(Cc4ccccc4F)c(C)nc23)cc1 [KU0097142]              62
3  Oc1cccc2ccc(/C=C/c3ccc4c(c3)OCO4)nc12 [KU0025984]              70
4  Cc1cc(C)c2c(O)nc(SCC(=O)c3ccc(O)c(O)c3)nc2n1 [Molecule 88]              63
5  N#Cc1c(C2CCCCC2)nc(Sc2ccc(C(F)(F)F)cc2[N+](=O)[O-])[nH]c1=O [Molecule 20]              77

----------
Catalogue of % inhibition T4 10' 40 readings, one per entry.
Molecular target: bacteriophage T4 DNA polymerase (Enterobacteria phage T4, UniProt P04415)
Construct: made in house
Sequence (P04415 1-898): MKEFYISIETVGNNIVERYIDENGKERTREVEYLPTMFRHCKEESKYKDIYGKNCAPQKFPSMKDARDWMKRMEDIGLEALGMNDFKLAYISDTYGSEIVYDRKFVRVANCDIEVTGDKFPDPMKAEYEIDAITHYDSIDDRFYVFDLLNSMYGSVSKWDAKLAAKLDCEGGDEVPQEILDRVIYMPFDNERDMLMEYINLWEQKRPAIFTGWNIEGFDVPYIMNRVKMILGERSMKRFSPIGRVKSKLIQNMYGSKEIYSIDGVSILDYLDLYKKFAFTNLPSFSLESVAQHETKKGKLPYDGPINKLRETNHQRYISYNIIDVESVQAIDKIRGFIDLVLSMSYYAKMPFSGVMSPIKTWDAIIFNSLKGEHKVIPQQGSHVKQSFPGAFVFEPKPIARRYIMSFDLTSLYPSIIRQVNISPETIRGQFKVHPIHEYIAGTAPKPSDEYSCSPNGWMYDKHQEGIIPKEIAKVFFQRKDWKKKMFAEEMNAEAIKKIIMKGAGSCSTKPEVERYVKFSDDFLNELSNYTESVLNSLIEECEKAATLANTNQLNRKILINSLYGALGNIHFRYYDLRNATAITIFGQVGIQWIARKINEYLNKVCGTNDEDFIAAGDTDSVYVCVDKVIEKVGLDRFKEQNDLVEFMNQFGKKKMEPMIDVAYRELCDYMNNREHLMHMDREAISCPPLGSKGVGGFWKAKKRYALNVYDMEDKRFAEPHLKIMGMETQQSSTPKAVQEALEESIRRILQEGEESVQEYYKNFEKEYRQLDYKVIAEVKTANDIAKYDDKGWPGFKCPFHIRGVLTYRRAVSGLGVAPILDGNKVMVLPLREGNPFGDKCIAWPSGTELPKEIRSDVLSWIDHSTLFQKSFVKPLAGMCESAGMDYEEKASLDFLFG
Experiment: Counter-screen against bacteriophage T4 DNA polymerase
Assay type: biochemical
Conditions: DRC-1; read at 10'; concentration 40
recorded endpoint: % inhibition T4 10' 40 (%)

> print(dat)
                                    compound  unit.string  measured.value
 1  Cc1ccc(N2CCC(NC(=O)Cc3cccs3)C2=O)cc1C (centres unmarked) [Molecule 57, O=C(NC1CCN(C1=O)c1ccc(c(c1)C)C)Cc1cccs1]            %         29.7521
 2  COc1ccc(C2CC(c3ccc(Cl)cc3Cl)Nc3nc(N)nn32)cc1OC (centres unmarked) [Molecule 43]            %               9
 3  Cc1nc(C)c2c(n1)N(CC1CCCCC1)C(=O)CC2 [KU0218606]            %          -2.983
 4  COc1ccccc1CC(=O)N1CCc2c(nc3cc(-c4ccccc4Cl)[nH]n3c2=O)C1 [Molecule 49]            %             -19
 5  Cc1cccc(-c2noc(C(=O)NNC(=O)C(Cl)(Cl)Cl)n2)c1 [KU0266208]            %           8.397
 6  Cn1nc(-c2nc(-c3ccccc3)no2)c2c1CCN(C(=O)Cc1cccs1)C2 [Molecule 58]            %              35
 7  Cn1nc(-c2nnc(-c3ccccc3F)o2)c2c1CCN(C(=O)c1ccccc1Cl)C2 [Molecule 34]            %            1.22
 8  N#Cc1c(O)nc(N2CCCCC2)nc1-c1ccc2c(c1)OCO2 [KU0083146]            %            2.23
 9  COc1ccc(/C=C/c2cc(C(=O)O)c3ccccc3n2)cc1 [Molecule 5, COc1ccc(cc1)/C=C/c1nc2ccccc2c(c1)C(=O)O]            %          -6.063
10  CCCc1ccc(Oc2coc3cc(OC)ccc3c2=O)cc1 [KU0193249]            %           4.024
11   Nc1cc(Oc2ccc(O)c(N)c2)ccc1O [KU0034728]            %         15.6951
12  O=C1CSC2=NC3=C(CCc4ccccc43)C(c3cccs3)N12 (centres unmarked) [Molecule 59, O=C1CSC2=NC3=C(C(N12)c1cccs1)CCc1c3cccc1]            %         23.9437
13  CC(=O)OCC1=C(C(=O)[O-])N2C(=O)[C@@H](NC(=O)Cc3cccs3)[C@H]2SC1.[Na+] [Molecule 73]            %         49.9492
14  CC(=O)Nc1cc(C(=O)c2cccs2)nn(-c2ccc(Cl)cc2)c1=O [KU0267905]            %         20.7445
15  C#CC(C=CC)OC(=O)c1ccccc1C(=O)O (centres unmarked) [Molecule 61, CC=CC(OC(=O)c1ccccc1C(=O)O)C#C]            %         28.2089
16  O=C(CCc1csc(NC(=O)Nc2ccccc2)n1)Nc1nc2ccccc2s1 [KU0177354]            %         17.0084
17  Cc1cc2[nH]c(C(=O)Nc3ccc(F)cc3)c(CN3CCOCC3)c2s1 [Molecule 60]            %         38.1099

----------
DNA Pol by entry:
Molecular target: P. falciparum apicoplast DNA polymerase (Pf-apPOL) (Plasmodium falciparum, UniProt Q8ILY1)
Test: Fluorescence-based high-throughput DNA polymerase assay (molecular beacon), primary screen and dose-response
Type: biochemical
Conditions: primary screen value of the 186 hits; unit not given; 90 min, 10 µM
recorded endpoint: DNA Pol

> print(dat)
                                    molecule  recorded.endpoint  measured.value
 1  CCCCCc1c2c(cc(O)c1C(=O)O)OC(=O)c1c(cc(OC)cc1C(=O)CCCC)O2            DNA Pol              33
 2  CCOc1ccc2cc(C3=NN(C(=O)CCC(=O)O)C(c4ccc(C)cc4)C3)c(=O)[nH]c2c1 (stereo not shown)            DNA Pol              36
 3  COc1ccc(C=C2Oc3c(ccc4c3CN(Cc3ccco3)CO4)C2=O)c(OC)c1            DNA Pol              29
 4     O=C(Nc1cccc(Cl)c1)Nc1nnc(-c2ccncc2)s1            DNA Pol              61
 5  O=c1[nH]c2ccc(Br)cc2c(-c2ccccc2)c1C1=NNC(c2ccco2)C1 (stereo not shown)            DNA Pol              43
 6            O=C(O)c1nc(-c2ccccc2)nc2c1OCO2            DNA Pol              34
 7        COc1ccc(-c2occ(C(=O)O)c2C(=O)O)cc1            DNA Pol              29
 8     O=[N+]([O-])c1ccc(SCc2ccco2)c2cccnc12            DNA Pol              42
 9    COc1ccc(NC(=O)Cn2nc3c(cc2=O)CCC3)cc1Cl            DNA Pol              45
10  CCCCOC(=O)CCCCCN1C(=O)C(=Cc2ccc(OC)cc2)SC1=S            DNA Pol              27
11  O=C(O)c1cc([N+](=O)[O-])c(N2CCN(c3cccc(C(F)(F)F)c3)CC2)c([N+](=O)[O-])c1            DNA Pol              52
12  O=C1N/C(=N/c2ccccc2Cl)S/C1=C/c1ccc([N+](=O)[O-])o1            DNA Pol              44
13  O=C(Cn1ccc2c(=O)[nH]ccc21)Nc1ccccc1Cl [Molecule 19, O=C(Cn1ccc2c1cc[nH]c2=O)Nc1ccccc1Cl]            DNA Pol              82
14  O=C(Cn1ccc2c(=O)[nH]ccc21)Nc1cccc(Cl)c1 [Molecule 23, O=C(Cn1ccc2c1cc[nH]c2=O)Nc1cccc(c1)Cl]            DNA Pol              79
15  CCCCCCCCCCCC1SCC(C(=O)O)N1C(C)=O (stereo not shown)            DNA Pol              90
16  Cc1ccc(CCNC(=O)c2cnn3c(O)c(Cc4ccccc4F)c(C)nc23)cc1            DNA Pol              48
17  O=c1cc(-c2ccccc2Cl)oc2c(NS(=O)(=O)c3cc(Cl)cc(Cl)c3O)ccc(O)c12            DNA Pol              36
18     O=C(NCC1CCN(C2CCCC2)CC1)C(=O)NC1CCCC1            DNA Pol              24
19   Cc1ccnc(NS(=O)(=O)c2ccc(-n3cccc3)cc2)n1            DNA Pol              40
20      O=C1NCCCn2cc(S(=O)(=O)Nc3ccccc3)cc21            DNA Pol              21
21  O=C(O)c1cccc(N2N=C(C(F)(F)F)/C(=C/c3ccc(-c4ccccc4[N+](=O)[O-])o3)C2=O)c1            DNA Pol              55
22  OC(C#Cc1ccccc1)c1ccco1 (stereo not shown)            DNA Pol              70
23  Cc1cccc(-c2nnc3ccc(NS(=O)(=O)c4ccc(C)c(C)c4)nn23)c1            DNA Pol              50
24  O=C(CSc1nc2ccccc2s1)Nc1ncc([N+](=O)[O-])s1            DNA Pol              67
25      COc1ccc(-c2cc(=O)c3cc(O)ccc3o2)cc1OC            DNA Pol              27
26  COc1cc(/C=C2\C(=O)N(c3ccc(C(=O)O)cc3)N=C2C(F)(F)F)ccc1OCC(C)C            DNA Pol              76
27  O=C1C(=Cc2ccncc2)Oc2c1ccc1c2CN(Cc2ccc3c(c2)OCO3)CO1            DNA Pol              32
28  COc1ccc(NC(=O)Cn2ccc3c(=O)[nH]ccc32)cc1Cl [Molecule 10, COc1ccc(cc1Cl)NC(=O)Cn1ccc2c1cc[nH]c2=O]            DNA Pol              78
29  Cc1ccc(C2=N/C(=C\c3ccc(I)o3)C(=O)O2)cc1[N+](=O)[O-]            DNA Pol              42
30  COc1ccc(NC(=O)Cn2ccc3c(=O)[nH]ccc32)cc1 [Molecule 13, COc1ccc(cc1)NC(=O)Cn1ccc2c1cc[nH]c2=O]            DNA Pol              53
31     Oc1cccc2ccc(/C=C/c3ccc4c(c3)OCO4)nc12            DNA Pol              45
32  Cc1cc(C)nc(Nc2nc(CC(=O)Nc3nc(-c4ccco4)cs3)cs2)n1            DNA Pol              70
33  COc1cc(Cl)c(C)cc1NC(=O)Cn1ccc2c(=O)[nH]ccc21            DNA Pol              43
34  CCc1ccccc1NC(=O)c1ccc(-c2ncccc2NC(C)=O)cc1            DNA Pol              26
